biological target: anti-CD28 Fab; experiment: BLI (Octet): biotinylated peptide on streptavidin sensor, anti-CD28 Fab titrated in solution, 1:1 model
Sequence (VH, as listed by the source, chain 1 of 2): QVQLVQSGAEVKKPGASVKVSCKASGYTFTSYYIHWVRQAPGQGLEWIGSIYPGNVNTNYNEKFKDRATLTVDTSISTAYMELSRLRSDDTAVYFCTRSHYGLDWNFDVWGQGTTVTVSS
Sequence (VL, as listed by the source, chain 2 of 2): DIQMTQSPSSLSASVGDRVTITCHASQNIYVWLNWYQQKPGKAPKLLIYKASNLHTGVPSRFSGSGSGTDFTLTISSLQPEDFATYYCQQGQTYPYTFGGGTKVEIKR
Where no end group is shown, it is not given here.
Property Label: t1/2 (s)

1. YCEGHLPEYIQKCL (not fully specified; cysteine pairing not given here; also: biotinylated, site not given here) [Peptide-134] | 60
2. YCEGHLPEYLAKCL (not fully specified; cysteine pairing not given here; also: biotinylated, site not given here) [Peptide-127] | 60
3. YCEGHAPEYIAKCL (cysteine pairing not given here; also: biotinylated, site not given here) [Peptide-121] | 24
4. YCEGHLPEYIEKCL (cysteine pairing not given here; also: biotinylated, site not given here) [Peptide-120] | 30
